Entries and their pIC50
Target: Human PDE10A1 (Homo sapiens, UniProt Q9Y233)
Sequence (Q9Y233 1-779 isoform Q9Y233-1): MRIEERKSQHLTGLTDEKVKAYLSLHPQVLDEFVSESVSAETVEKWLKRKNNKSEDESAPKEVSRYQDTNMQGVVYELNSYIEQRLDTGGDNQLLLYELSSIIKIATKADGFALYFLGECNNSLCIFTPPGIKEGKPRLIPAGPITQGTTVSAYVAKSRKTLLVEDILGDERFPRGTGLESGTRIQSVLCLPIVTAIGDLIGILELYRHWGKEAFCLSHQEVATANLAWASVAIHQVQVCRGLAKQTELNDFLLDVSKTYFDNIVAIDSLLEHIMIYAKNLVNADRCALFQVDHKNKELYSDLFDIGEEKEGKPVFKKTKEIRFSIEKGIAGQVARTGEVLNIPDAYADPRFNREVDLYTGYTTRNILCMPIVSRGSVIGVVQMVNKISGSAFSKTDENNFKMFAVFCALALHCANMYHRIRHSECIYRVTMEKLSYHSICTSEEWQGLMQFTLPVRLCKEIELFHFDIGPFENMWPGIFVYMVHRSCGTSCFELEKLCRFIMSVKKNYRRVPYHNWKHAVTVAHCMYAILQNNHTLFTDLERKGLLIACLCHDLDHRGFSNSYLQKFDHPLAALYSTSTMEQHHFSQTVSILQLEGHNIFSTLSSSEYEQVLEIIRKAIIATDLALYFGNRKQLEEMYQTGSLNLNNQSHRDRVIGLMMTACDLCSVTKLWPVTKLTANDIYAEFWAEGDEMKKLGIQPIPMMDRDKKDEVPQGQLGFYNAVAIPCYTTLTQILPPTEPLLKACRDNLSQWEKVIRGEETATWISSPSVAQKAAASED
Assay: hPDE10A1 Enzyme Inhibition
Assay type: biochemical
Conditions: [3H]-cAMP substrate; read-out: hPDE10A1 IC50 Band
pIC50: −log10 of the molar value.

Q: What measured pIC50 goes with CS(=O)(=O)c1cccc(-c2ccncc2)c1-c1ccc(OCc2ccc3ccccc3n2)cc1 [Example 392] ?
A: ≥ 7.30

Q: What measured pIC50 goes with Cc1ccc(-c2ccc(OCc3ccc4ccccc4n3)cc2)c(-c2ccncc2)c1 [Example 1867] ?
A: < 7.30

Q: What measured pIC50 goes with c1ccc(-c2ccoc2)c(-c2ccc(OCc3ccc4ccccc4n3)cc2)c1 [Example 1871] ?
A: < 7.30

Q: What measured pIC50 goes with COc1ccc(-c2ccccc2-c2ccc(OCc3ccc4ccccc4n3)cc2)cc1 [Example 330] ?
A: < 7.30

Q: What measured pIC50 goes with COc1cc(-c2ccccc2-c2ccc(OCc3ccc4ccccc4n3)cc2)ccc1C#N [Example 205] ?
A: ≥ 7.30

Q: What measured pIC50 goes with c1ccc(-c2ccccc2-c2ccc(OCc3ccc4ccccc4n3)cc2)cc1 [Example 1863] ?
A: < 7.30

Q: What measured pIC50 goes with Fc1ccc(-c2ccncc2)c(N2CCC(OCc3ccc4ccccc4n3)CC2)c1 [Example 1706] ?
A: < 7.30

Q: What measured pIC50 goes with COc1ccc(-c2ccccc2-c2ccc(OCc3ccc4ccccc4n3)cc2)cc1Cl [Example 1869] ?
A: < 7.30

Q: What measured pIC50 goes with CCc1ccc(COc2ccc(-c3ccccc3-c3ccncc3)cc2)nc1 [Example 1878] ?
A: < 7.30

Q: What measured pIC50 goes with N#Cc1ccc(-c2ccncc2)c(-c2ccc(OCc3ccc4ccccc4n3)cc2)c1 [Example 406] ?
A: ≥ 7.30

Q: What measured pIC50 goes with Fc1cccc(-c2ccc(OCc3ccc4ccccc4n3)cc2)c1-c1ccncc1 [Example 1946] ?
A: < 7.30

Q: What measured pIC50 goes with Cc1ccc(-c2ccncc2)c(-c2ccc(OCc3ccc4ccccc4n3)cc2)c1 [Example 408] ?
A: ≥ 7.30

Q: What measured pIC50 goes with Cc1ccccc1-c1ccc(OCc2ccc3ccccc3n2)cc1 [Example 444] ?
A: < 7.30

Q: What measured pIC50 goes with CC(C)Oc1ccccc1-c1ccc(OCc2ccc3ccccc3n2)cc1 [Example 1879] ?
A: < 7.30
